molecular target: activated rat MMP13 (rat, UniProt P23097 99-466); experiment: cell-based or functional assay
measuredQuantity: IC50, (adapted) rat fluorogenic peptide assay (nM)

• C0101PMP517A01 (VHH, Profile 2 Nanobody; also called C0101517A01; C010100087 (parental)) VHH: DVQLVESGGGLVQPGGSLRLSCAASGRTFSSYAMGWFRQAPGKEREFVAAISWSGGSTYYADSVKGRFTISRDNSKNTVYLQMNSLRPEDTAVYYCTAALAVYGPNRYRYGPVGEYNYWGQGTLVTVSS = 2.64
• C0101PMP062C02 (VHH, Profile 2 Nanobody; also called C0101062C02) VHH: EVQLVESGGALVRPGGSLRLSCAASGFAFSAAYMSWVRQAPGRGLEWVSSISDDGSKTYYADSVKGRFTISRDNAKNTVYLQMNNLKPDDTAVYYCNTGYGATTTRPGRYWGQGTQVTVSS = 2.88
• 516G08-40E09 clone 76 (bispecific antibody) EVQLVESGGGLVQPGGSLRLSCAGSGSIFRINVMAWYRQAPGKQRELVAAITSGGTTNYADSVKGRFTISRDNSKNTVYLQMNSLRPEDTAVYYCYADIGWPYVLDYDFWGQGTLVTVSSGGGGSGGGGSGGGGSGGGGSGGGGSGGGGSGGGGSEVQLVESGGGSVQAGGSLRLSCAASGSTFSRYSMNWYRQAPGKQREFVAGISVGRITNYAVSVRGRFTISRDNAEGTGYLQMNSLKPEDTAVYYCNAGGLQGYWGLGTLVTVSS = 0.16
